Origin of measurements: PubChem BioAssay

z-score for assorted compounds
# Assay Protocol: PSAC antagonists in infected red cells, primary screen, cell-based, P. falciparum Indochina, OD700, 2 h (AID 1155);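 further: lysis reports solute entry through the parasite surface anion channel PSAC; channel blockers reduce lysis of infected cells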
# Setup Conditions: P. falciparum Indochina infected erythrocytes, osmotic lysis OD700; higher = more signal, called active from +8 up or from −8 down
Answer using only a numeral; do not append any unit.

The cases that follow already have their z-score on record.
[[record]]
compound = "CCCC=C(CCC)[C@@H](NS(=O)(=O)c1ccc(C(F)(F)F)cc1)c1ccc(-c2ccccc2)cc1"
reported_endpoint = "z-score"
numeric_result = 0.329

[[record]]
compound = "O=[N+]([O-])c1ccc(C[n+]2ccc3ccc(O)cc3c2)o1"
reported_endpoint = "z-score"
numeric_result = -0.678

[[record]]
compound = "CCOC(=O)C1=C[C@@H](c2ccccc2)N(S(=O)(=O)c2ccc(C)cc2)[C@H]1c1ccc(F)cc1"
reported_endpoint = "z-score"
numeric_result = 1.42


Find the recorded z-score belonging to COc1cc(Cc2cc3c(c(CCc4ccccc4)n2)[Si](C(C)C)(C(C)C)OC3)cc(OC)c1OC and report it. 0.481

Find the recorded z-score belonging to CO[C@H]1O[C@H](CO)[C@@H](OC(=O)Nc2ccc3c(c2)OCO3)[C@H](OC(=O)Nc2ccccc2)[C@@H]1OC(=O)Nc1ccccc1 and report it. 0.903

Find the recorded z-score belonging to COC(=O)C1=CC(c2ccc(CO)cc2)=CC(C2CC2)N(Cc2sc3ccccc3c2Cl)C=C1C(=O)OC (stereo unspecified) and report it. 0.815

Find the recorded z-score belonging to C[C@H]1COC(=O)[C@H](Cc2ccccc2)NC(=O)[C@@H](C)COC(=O)[C@H](Cc2ccccc2)NC1=O and report it. -0.643

Find the recorded z-score belonging to Cc1ccc(S[C@]2(C(=O)NC3CC3)CC(=O)N(Cc3cc(C(F)(F)F)cc(C(F)(F)F)c3)[C@@H]2c2ccc(CO)cc2)cc1 and report it. -0.861

Find the recorded z-score belonging to COC(=O)c1c(CC[C@@H](CO)NC(=O)N[C@H](Cn2cc(-c3cncn3C)nn2)C(C)C)oc(C(C)=O)c1C(=O)OC and report it. -0.0063

Find the recorded z-score belonging to C=CCOC(=O)[C@@H]1[C@H]2C(=O)O[C@H](c3ccccc3)[C@H](c3ccccc3)N2[C@H](c2ccc(OCCOC(=O)[C@H]3C[C@H]4C(=O)N[C@@H](CCCCNC(C)=O)C(=O)N4[C@H]3c3ccc(O)cc3)cc2)[C@@]12C(=O)Nc1ccc(I)cc12 and report it. 1.92

Find the recorded z-score belonging to CCCNC(=O)[C@@]1(Sc2ccc(C)cc2)CC(=O)N(Cc2ccccc2Cl)[C@@H]1c1ccc(CO)cc1 and report it. -0.114

Find the recorded z-score belonging to CCOC(=O)C[C@H]1[C@H](OC(=O)c2cc3ccccc3oc2=O)[C@@H](NC(=O)C2CCCCC2)c2cc(OCCCO)ccc2N1C(=O)c1ccc2ccccc2n1 and report it. 0.491

Find the recorded z-score belonging to O=C(O)[C@@H]1Cc2c([nH]c3ccccc23)[C@@H](c2ccccc2)N1 and report it. 0.71

----------
composite z-score for assorted compounds
# Assay Protocol: binders of probe aFGF10 on microarray, primary screen, stem cell growth factor project, biochemical, small-molecule microarray, fluorescence 635/667 (AID 1071);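 further: score merges 667 nm spot intensity and signal to noise from triplicate slides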
# Setup Conditions: higher = more signal
Answer using only a numeral; do not append any unit.

The cases that follow already have their composite z-score on record.
[[record]]
compound = "CO[C@@H]1COC(=O)[C@H](C)NC(=O)CC=C[C@@H](C)[C@H](OC)COC(=O)[C@H](C)NC(=O)CC=C[C@H]1C"
numeric_result = 0.269

[[record]]
compound = "COc1cccc([C@@H]2[C@@H](C)CC[C@H]3C(=O)N(C)[C@@H](C(C)C)C(=O)N23)c1"
numeric_result = 0.391


Find the recorded composite z-score belonging to CCCC=C(CCC)[C@@H](NS(=O)(=O)c1ccc(C(F)(F)F)cc1)c1ccc(-c2ccccc2)cc1 and report it. 0.309

Find the recorded composite z-score belonging to O=C(CS)NCCCCCNC(=O)[C@H]1C[C@H]2C(=O)N3CCC[C@H]3C(=O)N2[C@H]1c1ccc(O)cc1 and report it. -0.267

Find the recorded composite z-score belonging to CC(=O)NCCCC[C@@H]1NC(=O)[C@@H]2C[C@H](C(=O)NCCCCCNC(=O)CS)[C@H](c3ccc(O)cc3)N2C1=O and report it. -1.38

Find the recorded composite z-score belonging to CCOC(=O)[C@H]1C/C=C/C[C@H](C(=O)OCC)C(=O)O[C@H]2[C@@H](OC)O[C@H](CO)[C@@H](OC(=O)Nc3ccc(Br)cc3)[C@@H]2OC1=O and report it. 0.28

Find the recorded composite z-score belonging to COCCCNC(=O)[C@@]1(Sc2ccc(C)cc2)CC(=O)N(Cc2cc(C(F)(F)F)cc(C(F)(F)F)c2)[C@@H]1c1ccc(CO)cc1I and report it. -0.811

Find the recorded composite z-score belonging to CC(=O)NCCCC[C@@H]1NC(=O)[C@@H]2C[C@H](C(=O)NCc3ccc(F)cc3)[C@H](c3cccc(OCCO)c3)N2C1=O and report it. 0.107
